# SUBJECT_OF_TEST: T1, CrkII NSH3 domain (CrkII^NSH3, residues 134–191) (human, UniProt P46108-1 134-191)
# T1 construct: human CrkII residues 134-191, N-terminal SH3 domain
# PROCEDURE_TEXT: SPR; Biacore S200; CrkII^NSH3 amine coupled to CM5, peptides injected; 20 °C, HBS-TP (20 mM HEPES pH 7.4, 150 mM NaCl, 1 mM TCEP, 0.005% Tween-P20); steady-state 1:1 fit
# EXPERIMENTAL_CONDITIONS: both partners purified
pKd: −log10 of the molar value.
QUANTITY_MEASURED: pKd

- Ac-FSPPPPPPKSRHL-NH2 (human PEAK2 (SgK223, PRAG1) residues 709-721; also called second PRM of PEAK2; source: synthetic peptide, bought: Mimotopes) [PEAK2^709–721 peptide (Ac-FSPPPPPPKSRHL-NH2)]: 4.89
